Collected bioavailability values appear next to each entry.
# Experimental details: Bioavailability in Sprague-Dawley rat at 1 mg/kg, iv and 2 mg/kg, po
# Format: ADME, organism-based
# Condition summary: in vivo

>>> df
                                   compound  recorded_result
0  C[C@H](NC(=O)C(C)(C)Oc1cc(F)cc(F)c1)[C@@H](Cc1ccc(Cl)cc1)c1ccccc1              19%

Shift focus to the following entry.
// lookup bioavailability for C[C@H](NC(=O)C(C)(C)Oc1ccc(C(F)(F)F)cn1)[C@@H](Cc1ccc(Cl)cc1)c1cccc(C#N)c1 [TARANABANT] 74%

====

# Experimental details: Half life in rhesus monkey at 0.2 mg/kg, iv and 0.4 mg/kg, po
# Assay type: ADME, organism-based, Macaca mulatta
# Condition summary: in vivo
Readout: half-life (h)
Response body: numeric value in h, unit text excluded.

// lookup half-life for C[C@H](NC(=O)C(C)(C)Oc1ccc(C(F)(F)F)cn1)[C@@H](Cc1ccc(Cl)cc1)c1cccc(C#N)c1 [TARANABANT] 3.6

====

# Experimental details: Bioavailability in rhesus monkey at 0.2 mg/kg, iv and 0.4 mg/kg, po
# Type: ADME, organism-based, Macaca mulatta
# Condition summary: in vivo
Readout: bioavailability (%)
Response body: numeric value in %, unit text excluded.

// lookup bioavailability for C[C@H](NC(=O)C(C)(C)Oc1ccc(C(F)(F)F)cn1)[C@@H](Cc1ccc(Cl)cc1)c1cccc(C#N)c1 31

====

# Target entity: Cannabinoid receptor 2 (Homo sapiens, UniProt P34972)
# Sequence (P34972 whole entry): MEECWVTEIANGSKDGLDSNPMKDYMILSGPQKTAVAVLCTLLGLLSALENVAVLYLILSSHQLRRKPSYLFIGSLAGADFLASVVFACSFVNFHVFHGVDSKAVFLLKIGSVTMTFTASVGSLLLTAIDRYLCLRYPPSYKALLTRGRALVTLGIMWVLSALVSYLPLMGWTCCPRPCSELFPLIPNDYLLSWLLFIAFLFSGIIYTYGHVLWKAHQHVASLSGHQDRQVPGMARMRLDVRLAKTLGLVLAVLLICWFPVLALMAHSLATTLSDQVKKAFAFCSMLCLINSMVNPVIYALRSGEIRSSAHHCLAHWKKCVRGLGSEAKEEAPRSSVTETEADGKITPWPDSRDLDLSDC
# Experimental details: Inhibition of [3H]CP-55940 binding to human recombinant CB2 receptor in CHO cells
Collected pIC50 values appear next to each entry.
Quick note: pIC50 means taking -log10 of the concentration in moles per liter.

>>> df
                           molecular_string  recorded_result
0  C[C@H](NC(=O)C(C)(C)Oc1ccc(Cl)cc1)[C@@H](Cc1ccc(Cl)cc1)c1cccc(F)c1             6.28
1  C[C@H](NC(=O)C(C)(C)Oc1ccncc1)[C@H](Cc1ccc(Cl)cc1)c1ccccc1             5.92
2  C[C@@H](NC(=O)C(C)(C)Oc1ccc(Cl)cc1)[C@H](Cc1ccc(Cl)cc1)c1ccccc1             5.77
3  C[C@@H](NC(=O)C(C)(C)Oc1ccc(Cl)cc1)[C@H](Cc1ccc(Cl)cc1)c1ccc(Cl)cc1             6.22

// lookup pIC50 for C[C@H](NC(=O)C(C)(C)Oc1ccc(Cl)cc1)[C@@H](Cc1ccc(Cl)cc1)c1ccccc1F 6.39

====

# Target entity: Cannabinoid receptor 1 (Homo sapiens)
# Sequence (P21554 whole entry): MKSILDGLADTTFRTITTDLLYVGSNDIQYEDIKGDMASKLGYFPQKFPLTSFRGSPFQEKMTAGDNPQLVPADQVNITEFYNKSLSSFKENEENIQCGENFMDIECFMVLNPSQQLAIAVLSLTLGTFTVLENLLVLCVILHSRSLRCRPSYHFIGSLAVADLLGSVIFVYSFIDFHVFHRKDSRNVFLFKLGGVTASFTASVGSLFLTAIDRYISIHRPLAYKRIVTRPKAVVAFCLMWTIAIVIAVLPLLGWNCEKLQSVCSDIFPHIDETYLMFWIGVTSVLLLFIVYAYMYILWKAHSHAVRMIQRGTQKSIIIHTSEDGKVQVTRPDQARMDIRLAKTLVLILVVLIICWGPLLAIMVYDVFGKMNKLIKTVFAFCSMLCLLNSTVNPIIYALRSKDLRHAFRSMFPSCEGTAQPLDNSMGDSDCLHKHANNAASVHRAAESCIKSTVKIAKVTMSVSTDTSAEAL
# Experimental details: biochemical
Response field label: string, one of rule met (IC50 strictly below 10 nM) or rule not met.

Study these solved cases before continuing.
In [3]: df
Out[3]:
                           molecular_string  answer_label
0  C[C@@H](NC(=O)C(C)(C)Oc1ccc(Cl)cc1)[C@H](Cc1ccc(Cl)cc1)c1ccc(Cl)cc1  rule not met
1  C[C@H](NC(=O)C(C)(C)Oc1ccccc1Cl)[C@@H](Cc1ccc(Cl)cc1)c1ccccc1  rule not met
2  C[C@H](NC(=O)C(C)(C)Oc1cccnc1)[C@@H](Cc1ccc(Cl)cc1)c1ccccc1  rule not met
3  C[C@H](NC(=O)C(C)(C)Oc1ccc(Cl)cc1)[C@@H](Cc1ccc(Cl)cc1)c1ccccc1F  rule not met
4  C[C@H](NC(=O)C(C)(C)Oc1ccc(Cl)cc1)[C@@H](Cc1ccc(Cl)cc1)c1ccc(F)cc1  rule not met

Answer whether the compound C[C@H](NC(=O)C(C)(C)Oc1ccc(Cl)cc1)[C@@H](Cc1ccccc1Cl)c1ccccc1 has IC50 strictly less than 10 nM rule not met

Answer whether the compound C[C@H](NC(=O)C(C)(C)Oc1ccncc1)[C@H](Cc1ccc(Cl)cc1)c1ccccc1 has IC50 strictly less than 10 nM rule not met
